Biological target: MAPK14 (UniProt Q16539)
Sequence (Q16539 whole entry, looked up): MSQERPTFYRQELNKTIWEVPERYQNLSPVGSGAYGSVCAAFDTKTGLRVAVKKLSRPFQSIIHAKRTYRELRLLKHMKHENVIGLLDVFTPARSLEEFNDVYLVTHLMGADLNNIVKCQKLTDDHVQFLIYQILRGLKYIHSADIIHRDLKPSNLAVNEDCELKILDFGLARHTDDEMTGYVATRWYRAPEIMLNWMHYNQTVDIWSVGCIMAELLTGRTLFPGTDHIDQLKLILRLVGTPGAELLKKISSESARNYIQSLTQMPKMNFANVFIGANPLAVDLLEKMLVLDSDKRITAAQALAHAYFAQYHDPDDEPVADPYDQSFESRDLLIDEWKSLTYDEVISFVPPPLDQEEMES
Experiment: Assessment of MAPK14 Kinase Activity Using Spectrophotometric Assay
Details: concentration not given here
ASSAY READOUT: inhibition (%)

smiles_structure=CC(C)(C)c1cc(NC(=O)N2=CC=C3C=CC=CC3=C2)n(n1)c4cccc(CCC(=O)O)c4 assay_readout=inhibition observed_value=58
smiles_structure=NC(=O)Cc1cccc(-n2nc(C3CCCC3)cc2NC(=O)Nc2ccc(-c3cccc4c3C=NC4=O)cc2)c1 assay_readout=inhibition observed_value=82

1 = Cc1ccc(NC(=O)Nc2cc(C(C)(C)C)nn2-c2cccc(CC(N)=O)c2)cc1Nc1ncccn1
2 = CC(C)(C)c1cc(NC(=O)Nc2cccc(-c3ncccn3)c2)n(-c2cccc(CC(N)=O)c2)n1
// task: argmin of inhibition over [ 1 , 2 ] Give the label under which the chosen entry appears. 2
